Assay: qHTS assay to identify small molecule agonists of the sonic hedgehog signaling (Shh) pathway (AID 1259368);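 note: NIH/3T3-derived 3T3Gli1-Luc cells carrying a stable Gli1-driven firefly luciferase reporter; nearly all actives have a fitted effect of over 15% in size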
Details: NIH/3T3 Gli1-Luc reporter, luciferase, 24 h; series mostly up to 92.4 µM
Activity calls are given as the source filed them. Calls come from the whole dose curve.
PARAMETER: activity change

Answered examples (4):
compound=O=C1OC2(c3ccc(O)cc3Oc3cc(O)ccc32)c2ccc(N=C=S)cc21 result=inactive
compound=C#C[C@]1(OC(C)=O)CC[C@H]2[C@@H]3CCC4=C/C(=N/O)CC[C@@H]4[C@H]3CC[C@@]21CC result=inactive
compound=C/C=C/C=C/COC(=O)C(C)C result=inactive
compound=C=C(C)c1cccc(C(=C)C)c1 result=inactive

List reported activity change for each of these compounds:
1. CCCNCCC
2. CC(C(=O)O)c1ccc2c(c1)[nH]c1ccc(Cl)cc12 (centres undefined)
3. CCc1cccc(CC)c1NC(=O)CN(CC(=O)O)CC(=O)O
4. Nc1nc(-c2ccccc2)cs1

Reply:
["inactive", "inactive", "inactive", "inactive"]

For every item below, please supply its activity change.
1. C=C(C)C(=O)OCCCCCCCCCC
2. CCCCCC(C)OC(=O)COc1ccc(Cl)c2cccnc12 (centres undefined)
3. CCCc1ccc(OCC(=O)N2CCN(C(=O)COc3ccc(CCC)cc3OC)CC2)c(OC)c1
4. COCCOc1cc2cc(C(=O)NC3CCN(C(C)C)CC3)n(CC(=O)Nc3ccc(Cl)cn3)c2cn1
5. CCCCCC/C=C\CCCCCCCC(=O)O
6. CCCC1CCC(=O)CC1
7. CCO[C@@H]1O[C@H](C(COCc2ccccc2)OCc2ccccc2)[C@H](OCc2ccccc2)[C@H]1O (some centres undefined)

Reply:
1: inactive; 2: inactive; 3: inactive; 4: inactive; 5: inactive; 6: inactive; 7: inactive

Please give activity change, item by item, for the list that follows.
1. O=C(O)c1cccc(C(F)(F)F)c1
2. CCC(C)(CCC(C)C)C(=O)[O][Sn]([CH3])([CH3])[O]C(=O)C(C)(CC)CCC(C)C (centres undefined)
3. OC[C@@H](O)[C@@H](O)CO
4. CC1=CCC(=C(C)C)CC1
5. CCN(CC)C(=O)c1cc(S(=O)(=O)Cc2ccccc2)c(N2CCC(c3ccccc3)CC2)cc1N(CC)CCN(C)C

Reply:
inactive
inactive
inactive
inactive
inactive

Take each entry in turn and give its activity change.
1. Cc1cc(-c2ccc(N=Nc3cc(S(=O)(=O)O)c4ccccc4c3N)c(C)c2)ccc1N=Nc1cc(S(=O)(=O)O)c2ccccc2c1N
2. CC(=O)OCC=C(C)C

Reply:
1. inactive
2. inactive

###

Assay: qHTS assay to identify small molecule agonists of the RXR signaling pathway - cell viability counter screen (AID 1159529); note: nearly all actives have a fitted effect of over 50% in size
Conditions: RXR-alpha-bla HEK293T viability, CellTiter-Glo, 16 h; series mostly up to 76.8 µM
Inconclusive results are not listed. Activity calls are given as the source filed them. The call rests on the fitted dose curve; in most records, active means well fitted cell-killing curve with a large enough effect in the repeat runs; inconclusive means weak or mixed curves, or effect the other way; inactive means no such curve, though single readings can be large or run the other way.
Choose one outcome from this list and give only that: active, inactive

Record excerpt, results attached:
molecule=CC(=O)OCC=C(C)C qualitative_label=inactive
molecule=CCc1ccc(Br)cc1 qualitative_label=inactive
molecule=Cc1cc(-c2ccc(N=Nc3cc(S(=O)(=O)O)c4ccccc4c3N)c(C)c2)ccc1N=Nc1cc(S(=O)(=O)O)c2ccccc2c1N qualitative_label=inactive
molecule=Cc1ccc(O)c(O)c1 qualitative_label=inactive
molecule=OCCN1CCN(CCCN2c3ccccc3Sc3ccc(C(F)(F)F)cc32)CC1 qualitative_label=active
molecule=S=c1nccc[nH]1 qualitative_label=inactive
molecule=COc1cc(C)ccc1O qualitative_label=inactive
molecule=NC(=S)NC(N)=S qualitative_label=inactive
molecule="C=CC(C)(CCC=C(C)C)OC=O (stereo unspecified)" qualitative_label=inactive
molecule=CCC(CC)(CC(=O)Nc1cccc(/C=C/c2nc(C3CCC3)cs2)c1)C(=O)O qualitative_label=inactive

Task item: Recorded call for `Nc1ccc(NCCO)c([N+](=O)[O-])c1` ?
Reply: inactive

Task item: Can you look up the reported call for `O=C(c1ccc(O)c(O)c1)c1ccc(O)cc1O` for me?
Reply: inactive

Task item: Tell me the assay call for CN1CCCCC1CCN1c2ccccc2Sc2ccc(S(C)=O)cc21 (stereo unspecified) please.
Reply: inactive

Task item: Assay result, entry `Cc1c(C)c2c(c(C)c1O)CC[C@@](C)(CCC[C@H](C)CCC[C@H](C)CCCC(C)C)O2` — outcome?
Reply: inactive

Task item: So what was the verdict on `CCOC(=O)Cn1cccc1-c1nc(-c2ccc(OC)cc2)c(-c2ccc(OC)cc2)s1` in this test?
Reply: inactive

Task item: Just curious, what result did `CCC(=O)C(=O)CC` get here?
Reply: inactive

Task item: What did the test return for `CC(=O)CC(=O)Nc1ccc(S(=O)(=O)O)cc1` ?
Reply: inactive

Task item: Tell me the recorded outcome of this test for `CCc1cccc(CC)c1NC(=O)CN(CC(=O)O)CC(=O)O` .
Reply: inactive

Task item: What outcome does the record of this test show for `CCCCCCCC/C=C\CCCCCCCCN` ?
Reply: inactive

Task item: Short answer needed: outcome of this test for `O=C1C(c2[nH]c3ccc(S(=O)(=O)O)cc3c2O)=Nc2ccc(S(=O)(=O)O)cc21` ?
Reply: inactive

Task item: Each molecule tested received a call. Report the one for `Cc1ccc(C(C)C)cc2c(C)ccc1-2` .
Reply: inactive

Task item: // outcome(item) with item = `O=C1OC2(c3ccc(O)cc3Oc3cc(O)ccc32)c2ccc(N=C=S)cc21`
Reply: inactive

Task item: Dear colleague, could you share the recorded outcome for `CC(C)=CCC1=C(O)c2ccccc2C(=O)C1=O` when you have a moment?
Reply: inactive

Task item: Any idea what this test logged for `O=C(O)c1cc(O)c2ccccc2c1O` ?
Reply: active

Task item: Give the logged outcome of this assay for the following molecule: `O=C(O)c1cc(N=Nc2ccc([N+](=O)[O-])cc2)ccc1O`
Reply: inactive

Task item: Can you look up the reported call for CC(CO)Oc1ccccc1 (stereo unspecified) for me?
Reply: inactive

###

Biological target: Cytochrome P450 1A2 (Homo sapiens)
Test: Cytochrome P450 Family 1 Subfamily A Member 2 (CYP1A2) small molecule antagonists: luciferase reporter qHTS assay (AID 1671199); note: nearly all actives have a fitted effect of over 50% in size
Conditions: P450-Glo CYP1A2 enzyme, luciferin luminescence, 1 h; series mostly up to 115 µM
Description: National Center for Advancing Translational Sciences [NCATS] U.S. Environmental Protection Agency [EPA] National Institutes of Environmental Health Sciences [NIEHS] National Toxicology Program [NTP] U.S. Food and Drug Administration [FDA] Cytochrome P450 (CYP) enzymes are membrane-bound hemeproteins that play a key role in metabolism of drugs and xenobiotics. […] The luciferin products formed are detected with a luciferin detection reagent, and the amount of light produced is proportional to CYP activity. […]
Records with an inconclusive call do not appear. Active and inactive are the calls of the source. Calls come from the whole dose curve; as a rule, active = well fitted inhibition curve with a large enough effect in the repeat runs; inconclusive = weak or mixed curves; inactive = no such curve, though single readings can be large or run the other way.
// one of active, inactive, no free text

compound=NC(=O)c1cccc([N+](=O)[O-])c1 qualitative_label=active
compound=CCCCNS(=O)(=O)c1ccc(C)cc1 qualitative_label=active
compound=CC(C)(C)c1csc(-c2cc3cc(OCc4ccccc4CC(=O)O)ccc3o2)n1 qualitative_label=inactive
compound=Cc1cc(C(C)(C)C)cc(C)c1CC1=NCCN1 qualitative_label=inactive
compound=CC/C=C\CCCCCO qualitative_label=inactive
compound=Fc1ccc(C(c2ccc(F)cc2)N2CCNCC2)cc1 qualitative_label=inactive

Please examine the following record next.
Task item: Field: outcome | Entry: C=CCCC(=O)/C=C/C1C(C)=CCCC1(C)C (configuration not stated)
Reply: inactive

###

Molecular target: Voltage-gated inwardly rectifying potassium channel KCNH2 (Homo sapiens)
Assay: Human Ether-a-go-go-Related Gene (hERG) channel small molecule antagonists: fluorescence cell-based qHTS assay (AID 1671200); note: nearly all actives have a fitted effect of over 50% in size
Details: hERG-U2OS cells, FluxOR thallium flux fluorescence; series mostly up to 76.8 µM
Results filed as inconclusive are left out. Activity calls are given as the source filed them. The call rests on the fitted dose curve; in most records, active means well fitted inhibition curve with a large enough effect in the repeat runs; inconclusive means weak or mixed curves; inactive means flat fitted curve, though single readings scatter.
Choose the fitting class; nothing outside active, inactive is accepted.

compound="CCCCCC(C)OC(=O)COc1ccc(Cl)c2cccnc12 (configuration not stated)" target_under_test="Voltage-gated inwardly rectifying potassium channel KCNH2 (Homo sapiens)" qualitative_label=active
compound=O=C(O)Cc1ccccc1Nc1c(Cl)cccc1Cl target_under_test="Voltage-gated inwardly rectifying potassium channel KCNH2 (Homo sapiens)" qualitative_label=inactive
compound=CCC(C)[O-].CCC(C)[O-].CCOC(=O)/C=C(/C)[O-].[Al+3] target_under_test="Voltage-gated inwardly rectifying potassium channel KCNH2 (Homo sapiens)" qualitative_label=inactive
compound=O=C1NC(=O)[C@@H]2CC=CC[C@H]12 target_under_test="Voltage-gated inwardly rectifying potassium channel KCNH2 (Homo sapiens)" qualitative_label=inactive

Task item: Dear all, I need the recorded test outcome for `CN(C)Cc1ccccc1O` , thank you.
Reply: inactive

Task item: Recorded call for `C#C[C@]1(O)CC[C@H]2[C@@H]3[C@H](C)CC4=C(CCC(=O)C4)[C@H]3CC[C@@]21C` ?
Reply: inactive
